Below is a list of entries, each paired with its recorded Kd value.
# experimental_target: CHIKV nsP2^pro (Chikungunya virus)
# Sequence (Q8JUX6 1001-1333): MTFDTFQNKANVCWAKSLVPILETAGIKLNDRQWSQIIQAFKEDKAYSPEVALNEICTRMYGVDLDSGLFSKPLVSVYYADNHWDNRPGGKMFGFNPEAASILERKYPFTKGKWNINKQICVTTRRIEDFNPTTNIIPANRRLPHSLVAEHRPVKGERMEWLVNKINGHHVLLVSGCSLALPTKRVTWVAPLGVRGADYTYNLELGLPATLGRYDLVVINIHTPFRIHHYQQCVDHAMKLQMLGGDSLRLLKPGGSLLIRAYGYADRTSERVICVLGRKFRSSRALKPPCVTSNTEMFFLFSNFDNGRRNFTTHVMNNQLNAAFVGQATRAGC
State the answer as a number, implicitly in µM.

1. COc1ccc(C2CC(=O)c3c(O)cc(O)cc3O2)cc1O (centres unmarked) [HST, 3’,5,7-trihydroxy-4’-methoxyflavanone]; 31.6

Please find the next compound below.
Give Kd (CHIKV nsP2^pro (Chikungunya virus)) of the following compound: COc1ccc([C@@H]2CC(=O)c3c(O)cc(O[C@@H]4O[C@H](CO[C@@H]5O[C@@H](C)[C@H](O)[C@@H](O)[C@H]5O)[C@@H](O)[C@H](O)[C@H]4O)cc3O2)cc1O 40.7
